System: NCI-H522
run-description: NCI tumour cell line growth inhibition, 48 h
Active and inactive are the calls of the source. No stated cut-off is given here; in the data, active = GI50 up to about 1.1 µM and inactive = higher.
Thanks in advance; please answer with one of these: active, inactive

compound	label-value
Brc1ccc2c(-c3csc(-c4c[nH]c5ccc(Br)cc45)n3)c[nH]c2c1	inactive
O=C1C(Cl)N(c2ccc(Cl)cc2)C1c1c[nH]c2ccccc12 (stereo not given)	inactive
COc1ccc(/C=N/N=C(\N)NO)c(OC)c1C	inactive
CC1=NCC[N+]1(CCc1ccccc1)Cc1ccccc1 (stereo not given)	inactive

Query: In this assay, the call recorded for O=C1O[C@H]2[C@H](OC(=O)c3cc(O)c(O)c(O)c3)[C@@H](OC(=O)c3cc(O)c(O)c4c3[C@@H]3C1=CC(=O)C(O)(O)C3(O)O4)[C@H](OC(=O)c1cc(O)c(O)c(O)c1)O[C@@H]2COC(=O)c1cc(O)c(O)c(O)c1 (stereo not given in full) was what?
Result: inactive

Query: Repeat for the following compound: O=C(Oc1cc(=O)c(OC(=O)c2ccccc2)co1)c1ccccc1
Result: inactive

Query: Continue with SC1=NC2(CCCCCC2)NN1c1ccccc1
Result: inactive

The reported measurements were obtained from ChEMBL document CHEMBL1201862.
